# targetOrSystem: UniProtKB O75762
# Sequence (O75762 whole entry): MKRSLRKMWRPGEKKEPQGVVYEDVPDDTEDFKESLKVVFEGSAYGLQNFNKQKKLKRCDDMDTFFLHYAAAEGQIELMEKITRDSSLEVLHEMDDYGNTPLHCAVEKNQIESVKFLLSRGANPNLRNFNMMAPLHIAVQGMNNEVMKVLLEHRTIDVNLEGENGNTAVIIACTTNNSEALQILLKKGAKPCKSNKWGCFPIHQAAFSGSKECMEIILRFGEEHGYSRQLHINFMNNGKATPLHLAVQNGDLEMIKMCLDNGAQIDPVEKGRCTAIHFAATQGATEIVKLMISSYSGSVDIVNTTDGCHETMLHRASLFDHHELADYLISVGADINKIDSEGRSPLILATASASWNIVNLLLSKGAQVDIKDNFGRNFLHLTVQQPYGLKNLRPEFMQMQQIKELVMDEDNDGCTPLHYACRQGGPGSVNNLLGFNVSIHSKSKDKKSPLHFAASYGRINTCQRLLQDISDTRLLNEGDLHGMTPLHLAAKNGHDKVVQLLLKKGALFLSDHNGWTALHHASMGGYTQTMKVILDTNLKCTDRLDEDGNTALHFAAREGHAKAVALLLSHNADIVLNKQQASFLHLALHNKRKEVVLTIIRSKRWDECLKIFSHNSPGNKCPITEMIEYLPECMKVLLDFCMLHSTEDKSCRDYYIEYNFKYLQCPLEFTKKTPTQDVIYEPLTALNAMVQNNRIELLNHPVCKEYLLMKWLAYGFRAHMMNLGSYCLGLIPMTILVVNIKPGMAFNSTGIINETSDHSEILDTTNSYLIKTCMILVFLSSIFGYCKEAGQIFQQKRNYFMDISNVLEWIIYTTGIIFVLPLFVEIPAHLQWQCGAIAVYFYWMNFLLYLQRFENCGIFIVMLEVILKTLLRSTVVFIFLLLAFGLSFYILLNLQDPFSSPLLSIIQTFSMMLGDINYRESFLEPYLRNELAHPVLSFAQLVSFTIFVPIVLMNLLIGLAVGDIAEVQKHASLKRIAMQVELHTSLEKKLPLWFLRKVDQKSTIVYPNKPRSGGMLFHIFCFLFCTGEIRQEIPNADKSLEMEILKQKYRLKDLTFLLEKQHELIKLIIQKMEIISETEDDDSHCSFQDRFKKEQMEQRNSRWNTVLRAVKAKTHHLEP
# assayName: Assay 1: In vitro cellular testing of TRPA1 modulation (CHO-TREx, Fluo-3 calcium fluorescence, AITC agonist)
# Assay type: cell-based
# Set-up: expressed in transfected cells; host or cells: CHO-TREx cells (Invitrogen), vector pcDNA4/TO
# setupConditions: CHO-TREx cells expressing human TRPA1; Fluo-3 fluorescence (FLIPR/Tetra); agonist 15 μM allyl isothiocyanate (AITC); 30 minute antagonist incubation
recordedEndpoint: pIC50
// scale note: pIC50 = -log10(conc_M); give the bare number

Request: Can you look up the measured pIC50 of O=C(NCc1cc(-c2ccc(C(F)(F)F)cc2)nc(N2CCN(Cc3ccccn3)CC2)c1)[C@@H]1CCCN1S(=O)(=O)c1ccc(F)cc1 for me?
Response: 5.79

Request: Lookup Nc1nc(CNC(=O)[C@@H]2CCCN2S(=O)(=O)c2ccc(F)cc2)cc(-c2ccc(C(F)(F)F)cc2)n1
Response: 6.32

Request: Field entry: O=C(NCc1cc(-c2ccc(C(F)(F)F)cc2)nc(N2CCN(Cc3ccccc3)CC2)c1)[C@@H]1CCCN1S(=O)(=O)c1ccc(Cl)s1
Response: 7.74

Request: Input Cn1ccc2ccc(-c3cccc(CNC(=O)[C@@H]4CCCN4S(=O)(=O)c4ccc(F)cc4)c3)cc21
Response: 5.60

Request: Now consider O=C(NCc1cc(-c2ccc(C(F)(F)F)cc2)ncn1)[C@@H]1CC(F)(F)CN1S(=O)(=O)c1ccc(F)cc1 and answer again.
Response: 6.64

Request: // repeat for CC(C)CN1CCN(c2cc(CNC(=O)[C@@H]3CCCN3S(=O)(=O)c3ccc(F)cc3)cc(-c3ccc(C(F)(F)F)cc3)n2)CC1 and report
Response: 6.94

Request: Next compound: Cc1ccc(S(=O)(=O)N2CCC[C@H]2C(=O)NCc2cc(-c3ccc(C(F)(F)F)cc3)ncn2)cc1
Response: 6.86

Request: Entry O=C(NCc1cccc(-c2ccc(Cl)cc2)c1)[C@@H]1CCCN1S(=O)(=O)c1ccc(F)cc1 please
Response: 7.72

Request: Would you mind doing CNc1cc(CNC(=O)[C@@H]2CCCN2S(=O)(=O)c2ccc(Cl)s2)cc(-c2ccc(C(F)(F)F)cc2)n1 as well?
Response: 6.75

Request: # iterate: CC(Nc1cc(CNC(=O)[C@@H]2C=CCN2S(=O)(=O)c2ccc(F)cc2)cc(-c2ccc(C(F)(F)F)cc2)n1)c1cccnc1 (stereo partly shown)
Response: 5.14

Request: Continue with CC(C)(C)OC(=O)N[C@H]1CCN(c2nc(CNC(=O)[C@@H]3CCCN3S(=O)(=O)c3ccc(Cl)s3)cc(-c3ccc(C(F)(F)F)cc3)n2)C1
Response: 7.49

----------
Exercise: state measured IC50 for each of the molecules provided.
# targetOrSystem: UniProt:O75762
# assayName: Alternative TRPA1 Ca2+ fluorometry assay (hTRPA1/TREx-HEK293 cells, Fluo-4, FDSS 6000)
# Type: cell-based
# Parameters: expressed in transfected cells
# setupConditions: Fluo-4-AM, agonist 6,11-dihydro-5H-dibenzo[b,e]azepine-10-carboxylic acid methyl ester 25 nM, procedure used for Examples 184, 190 to 192, 194 to 316

Request: Return IC50 measured with UniProt:O75762 given this molecule: O=C(NCc1cc(-c2ccc3c(c2)OCO3)nc(N2CCN(c3ccccc3F)CC2)n1)[C@@H]1CCCN1S(=O)(=O)c1ccc(F)cc1
Response: 1290 nM

Request: Do the same for COc1ccc(F)cc1-c1cc(CNC(=O)[C@@H]2CCCN2S(=O)(=O)c2ccc(F)cc2)nc(N2CCN(c3ccccc3F)CC2)n1 please
Response: 1290 nM

Request: Another: O=C(NCc1cc(-c2cc(F)cc(F)c2)nc(N2CCN(c3ccccc3F)CC2)n1)[C@@H]1CCCN1S(=O)(=O)c1ccc(F)cc1
Response: 1590 nM

Request: Then what about the molecule O=C(NCc1cc(-c2ccc(Br)cc2)nc(N2CCOCC2)n1)[C@@H]1CCCN1S(=O)(=O)c1ccc(F)cc1 ?
Response: 871 nM

Request: Please answer likewise for O=C(NCc1cc(-c2ccc(Br)cc2)nc(N2CCC(Cc3ccccc3)CC2)n1)[C@@H]1CCCN1S(=O)(=O)c1ccc(F)cc1
Response: 2400 nM

Request: Try this molecule too: O=C(NCc1cc(-c2ccc(C(F)(F)F)cc2)nc(C(F)(F)F)n1)[C@@H]1CCCN1S(=O)(=O)c1ccc(F)cc1
Response: ~33 nM
